assay-system: TNF-alpha (UniProt P01375 77-233)
Sequence (P01375 77-233): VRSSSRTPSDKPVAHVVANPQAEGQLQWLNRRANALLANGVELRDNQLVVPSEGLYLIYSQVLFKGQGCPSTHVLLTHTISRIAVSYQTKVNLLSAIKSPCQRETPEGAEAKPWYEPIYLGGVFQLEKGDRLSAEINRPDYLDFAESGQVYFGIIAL
assay-overview: graphene FET
attribute-measured: Kd (nM)
Answers are plain numbers, in nM.

Recorded Kd of TGGTGGATGGCGCAGTCGGCGACAA (ssDNA, 5'-NH2 (coupled to PASE on graphene)) [VR11] , please.
14.7
